# MEASUREMENT_TARGET: OCT1 (Homo sapiens, UniProt O15245)
# Sequence (O15245 whole entry): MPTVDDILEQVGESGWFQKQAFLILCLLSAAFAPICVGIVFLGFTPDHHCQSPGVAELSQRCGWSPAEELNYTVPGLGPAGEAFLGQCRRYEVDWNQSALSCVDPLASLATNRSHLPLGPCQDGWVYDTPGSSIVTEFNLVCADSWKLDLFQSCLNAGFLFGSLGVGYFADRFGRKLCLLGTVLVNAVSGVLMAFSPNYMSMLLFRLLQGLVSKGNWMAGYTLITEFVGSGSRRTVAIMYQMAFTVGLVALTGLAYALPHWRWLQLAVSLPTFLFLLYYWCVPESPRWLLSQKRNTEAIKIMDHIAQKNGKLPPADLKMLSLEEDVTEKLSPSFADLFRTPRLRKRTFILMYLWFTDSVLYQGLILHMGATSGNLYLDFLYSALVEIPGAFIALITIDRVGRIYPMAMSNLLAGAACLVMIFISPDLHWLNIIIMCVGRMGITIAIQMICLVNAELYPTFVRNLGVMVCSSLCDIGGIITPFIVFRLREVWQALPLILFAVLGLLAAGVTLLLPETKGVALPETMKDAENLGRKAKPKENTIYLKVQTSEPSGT
# ASSAY_COMMENT: Inhibition of model substrate uptake in OCT1-overexpressing HEK293 cells
# Format: cell-based
# Design: expressed in transfected cells; host or cells: HEK293
# TEST_CONDITIONS: human, OCT1-overexpressing HEK293 cells, pH 7.4, probe sumatriptan (2 μM), OCT1; 20 μM inhibitor, 2 μM sumatriptan, 5 min; read-out: Sumatriptan inhibition [%]
Outcome: Satisfied for inhibition at 5 min, 20 μM of at least 60%; Not satisfied for anything lower.

Decide: inhibition at 5 min, 20 μM of CNCC[C@@H](Oc1cccc2ccccc12)c1cccs1 [(R)-Duloxetine] >= 60%?
Satisfied

Does inhibition at 5 min, 20 μM meet or surpass 60% for OC[C@H](O)CN1CCN(c2ccccc2)CC1 [(R)-Dropropizine] ?
Not satisfied

Textbook exercise: given the entry CNC[C@@H](O)c1cccc(O)c1 [(S)-Phenylephrine] , state whether its inhibition at 5 min, 20 μM is greater than or equal to 60%.
Not satisfied

Threshold query (inhibition at 5 min, 20 μM >= 60%) on CN(C)CCO[C@](C)(c1ccccc1)c1ccccn1 [(R)-Doxylamine]
Satisfied

Test whether the molecule CNCC[C@@H](Oc1ccc(C(F)(F)F)cc1)c1ccccc1 [(R)-Fluoxetine] records inhibition at 5 min, 20 μM of 60% or higher.
Satisfied

Hello, I need to know if Cc1cccc(C)c1OC[C@@H](C)N [(R)-Mexiletine] has measured inhibition at 5 min, 20 μM not below 60%. Thanks!
Satisfied

Given the entry CCCCN1CCCC[C@H]1C(=O)Nc1c(C)cccc1C [(S)-Bupivacaine] , answer whether its inhibition at 5 min, 20 μM meets or surpasses 60%.
Not satisfied

Reported inhibition at 5 min, 20 μM at or above 60%? CCCN[C@H]1CCc2nc(N)sc2C1 [(S)-Pramipexole]
Not satisfied

Hello, I need to know if CC(C)(C)NC[C@H](O)COc1nsnc1N1CCOCC1 [(S)-Timolol] has measured inhibition at 5 min, 20 μM not below 60%. Thanks!
Not satisfied

Say whether CCCN[C@@H]1CCc2nc(N)sc2C1 [(R)-Pramipexole] shows inhibition at 5 min, 20 μM of 60% or more.
Not satisfied

// inclusive: inhibition at 5 min, 20 μM at least 60%? input: CCN(CC)CC#CCOC(=O)[C@](O)(c1ccccc1)C1CCCCC1 [(R)-Oxybutynine]
Satisfied

Reported inhibition at 5 min, 20 μM reaches at least 60% for CN(C)CCC[C@@]1(c2ccc(F)cc2)OCc2cc(C#N)ccc21 [(S)-Citalopram] ?
Satisfied

Could you please find out whether CNC[C@H](O)c1cccc(O)c1 [(R)-Phenylephrine] has inhibition at 5 min, 20 μM that meets 60% or exceeds it?
Not satisfied

Threshold query (inhibition at 5 min, 20 μM >= 60%) on C=C[C@H]1C[N@@]2CC[C@H]1C[C@@H]2[C@@H](O)c1ccnc2ccc(OC)cc12 [Quinidine]
Not satisfied

Could you please find out whether CCN1CCC[C@@H]1CNC(=O)c1cc(S(=O)(=O)CC)c(N)cc1OC [(R)-Amisulpride] has inhibition at 5 min, 20 μM that meets 60% or exceeds it?
Not satisfied

Item N[C@@H]1CONC1=O [(R)-Cycloserine] with inhibition at 5 min, 20 μM of 60% or above?
Not satisfied

Assess whether reported inhibition at 5 min, 20 μM for C=C[C@H]1C[N@@]2CC[C@H]1C[C@H]2[C@H](O)c1ccnc2ccc(OC)cc12 [Quinine] sits at 60% or higher.
Not satisfied

API: above_or_equal(metric=inhibition at 5 min, 20 μM, cutoff=60%) for item CC(C)Cc1ccc([C@H](C)C(=O)O)cc1 [(S)-Ibuprofen]
Not satisfied

Is inhibition at 5 min, 20 μM for COc1ccccc1OCCNC[C@H](O)COc1cccc2[nH]c3ccccc3c12 [(S)-Carvedilol] at or above 60%?
Satisfied

hey, is inhibition at 5 min, 20 μM for this one >= 60%? CN(C)CCC[C@]1(c2ccc(F)cc2)OCc2cc(C#N)ccc21 [(R)-Citalopram]
Satisfied

All figures here come from paper PMC10698726.
